Listed compounds paired with reported growth
# System: SF-295 CNS
# assay-remarks: NCI-60 one-dose screen, 48 h (100 = growth as untreated, 0 = no growth, -100 = all killed)
# condition-summary: 10 µM unless noted
This is part of a sample that, as a whole, favours compounds with a hit. Of some 83,000 tested, about 20% had one in any assay.
Give just the numeric value; % need not be written.

Illustrative cases are given below, each with its answer.
compound | growth (%)
CN1CCN(Cc2ccc(NC(=O)c3cncc(C#Cc4cnc(N)cc4C#N)c3)cc2C(F)(F)F)CC1 | 24.5
CCCCCc1ccc(S(=O)(=O)Nc2cc(-c3csc(NC(C)=O)n3)ccc2N2CCN(C)CC2)cc1 | 49.9

Notebook: CCNC(=O)N1CCc2c(Br)c3c(c(OC)c2C1Cc1ccc(OC)cc1)OCO3 (stereo not drawn) , growth read as 25.5

Notebook: CCn1cc(C(=O)N/N=C/c2cccc(F)c2)c(=O)c2cc(F)c(N3CCNC(C)C3)c(F)c21 (stereo not drawn) , growth read as 75.7

Notebook: COc1cc(/C=C/c2cn[nH]c2-c2ccc(C)cc2)cc(OC)c1OC , growth read as 11.5

Notebook: Cc1c2ncccc2nc2[nH]c3ccc(OCCN(C)C)cc3c12 , growth read as 32

Measured values drawn from PubChem BioAssay (NCI) for this set.
